Tested on: bloodstream forms of T. brucei brucei (strain 427)
Assay: T. b. brucei growth inhibition, Alamar blue assay
Type: cell-based, Trypanosoma brucei brucei
Conditions: Hep G2 CC50 / T.b.b EC50
READOUT: SI (CC50/EC50), T.b.b

stdin: Which SI (CC50/EC50), T.b.b reading was recorded for the molecule O=C(N[C@H](/C=C/S(=O)(=O)c1ccccc1)CCc1ccccc1)c1cc(Cl)c([N+](=O)[O-])[nH]1 [Compound 3] ?
stdout: >5.13

stdin: What about O=C(NC/C=C/S(=O)(=O)c1ccccc1)c1ccc([N+](=O)[O-])s1 [Compound 4] ?
stdout: 3.21

stdin: Entry O=C(NC/C=C/S(=O)(=O)c1ccccc1)c1ccco1 [Compound 6] please
stdout: 34.02

stdin: Same again, this time with CNC(=O)/C=C/CNC(=O)c1ccc([N+](=O)[O-])o1 [Compound 11]
stdout: > 44.38

stdin: // query: CNC(=O)/C=C/CNC(=O)c1ccc([N+](=O)[O-])s1 [Compound 10]
stdout: > 138.88

====

Assay: Single-dose pharmacokinetics in mice
Format: in vivo, mice (C57BL/6
Conditions: male, C57BL/6, mouse, plasma, oral, 5 mg/kg
READOUT: concentration at 2 h

stdin: What value of concentration at 2 h has been reported for the following compound? CNC(=O)/C=C/CNC(=O)c1ccc([N+](=O)[O-])s1
stdout: 720 nM

====

Test: Human liver microsome stability
Format: in vitro ADME
Details: liver microsomes
READOUT: half-life (min)
Lab book: enter the figure in min, no units written.

stdin: # lookup: half-life of O=C(N[C@H](/C=C/S(=O)(=O)c1ccccc1)CCc1ccccc1)c1ccc([N+](=O)[O-])o1
stdout: 10.8

====

Target: tCatL (trypanosomal cathepsin-L) (Trypanosoma brucei rhodesiense, UniProt Q95PM0)
Experiment: tCatL inhibition assay
Type: biochemical
Conditions: at 10 μM after 1 hour
READOUT: Percentage inhibition of tCatL

CNC(=O)CCCNC(=O)c1ccc([N+](=O)[O-])s1 = inactive
CC(C)C[C@H](NC(=O)[C@H]1O[C@@H]1C(=O)O)C(=O)NCCCCN=C(N)N [Compound E64, E-64, reference compound] = 100%
CS(=O)(=O)CCCNC(=O)c1cccs1 = inactive
CNC(=O)CCCNC(=O)c1cccs1 = inactive

These entries and their values trace back to paper PMC10843616.
